- Test system: KM12
- experiment_notes: NCI tumour cell line growth inhibition, 48 h
Calls of active or inactive are those of the source. Rule as the data show it: active = GI50 up to about 1.1 µM and inactive = higher.
The categories you may choose from are T (active), F (inactive)

As a guide, the following entries are already answered.
>>> label_class("CCOC(=O)/C(C(C)=O)=C(\\OC(C)=O)c1ccncc1C(=O)O")
"F"
>>> label_class("C=CCOCCC(CC=C)C(=O)CC(=O)OC (stereo not drawn)")
"F"
>>> label_class("O=C1C=C(Sc2ccccc2)c2nccc3c2c1nc1ccccc13")
"F"

Moving on to another compound below.
Q) Status in this test for CC(C)(C)OC(=O)N1C(OP(=O)(Oc2ccccc2)Oc2ccccc2)=CSc2ccccc21 ?
A) F

Reference for the values: ChEMBL document CHEMBL1201862
